# TGI annotations
# System: ACHN renal
# Procedure details: NCI tumour cell line growth inhibition, 48 h

| Compound | TGI |
| --- | --- |
| COc1cccc(F)c1C(=O)c1cnc(NC2CCN(S(C)(=O)=O)CC2)nc1N | > 25 µM |
| NC(N)=NCCN1CC2CCC(CC2)C1 | > 100 µM |
| CC(=O)CCn1ncc(Cl)c(Cl)c1=O | 30.9 µM |
| Cc1ccc(S(=O)(=O)N(C=O)N=C2CCN(Cc3ccccc3)CC2)cc1 | > 100 µM |
| COC(=O)COc1ccccc1/C=C1\N=C(c2ccccc2)N(c2cc(C(F)(F)F)ccc2Cl)C1=O | > 100 µM |
| CN(CCSCCN(C)C(=O)OC(C)(C)C)C(=O)OC(C)(C)C | > 100 µM |
| O=c1sc2ccccc2n1CC1CS1 (stereo not given) | > 100 µM |
| O=C(Nc1ccc2ncccc2c1)Nc1ccc2ncccc2c1 | > 100 µM |
| CCN1CCN(C(=O)[C@@]2(C)CC[C@]3(C)CC[C@]4(C)C(=CC(=O)[C@@H]5[C@@]6(C)CC[C@H](OC7C[C@@H](O)[C@@H](O)C(C)O7)C(C)(C)[C@@H]6CC[C@]54C)[C@@H]3C2)CC1 (stereo not given in full) | 1.69 µM |
| CCCCCCNc1n[nH]c(=O)c2c1nnn2Cc1ccccc1 | > 100 µM |
